- METHOD: Enzyme Inhibition Assay
- CONDITION_CONTEXT: pH 7.4; 22 °C

| MOLECULE | Ki |
| --- | --- |
| CCOc1ccc2nc3cc(N)ccc3c(N)c2c1 | > 100 µM |
| Nc1c2c(nc3ccccc13)CCCC2 | > 100 µM |
| COc1ccc2nc3cc(Cl)ccc3c(N)c2c1 [6-chloro-2-methoxyacridin-9-amine] | > 100 µM |

----------
Test system Acetylcholinesterase (Homo sapiens, UniProt P22303), Ki listed for each of the molecules.

| SMILES_DATA | ASSAYED_SYSTEM | UNIT_SPEC | Ki |
| --- | --- | --- | --- |
| COc1ccc2nc3cc(Cl)ccc3c(N)c2c1 | Acetylcholinesterase (Homo sapiens, UniProt P22303) | nM | 49 |
| CCOc1ccc2nc3cc(N)ccc3c(N)c2c1 | Acetylcholinesterase (Homo sapiens, UniProt P22303) | nM | 490 |
